Record form. Attribute: pEC50. Fill in for each entry.
Molecular target: human FSH receptor (Homo sapiens)
Sequence (P23945 18-695): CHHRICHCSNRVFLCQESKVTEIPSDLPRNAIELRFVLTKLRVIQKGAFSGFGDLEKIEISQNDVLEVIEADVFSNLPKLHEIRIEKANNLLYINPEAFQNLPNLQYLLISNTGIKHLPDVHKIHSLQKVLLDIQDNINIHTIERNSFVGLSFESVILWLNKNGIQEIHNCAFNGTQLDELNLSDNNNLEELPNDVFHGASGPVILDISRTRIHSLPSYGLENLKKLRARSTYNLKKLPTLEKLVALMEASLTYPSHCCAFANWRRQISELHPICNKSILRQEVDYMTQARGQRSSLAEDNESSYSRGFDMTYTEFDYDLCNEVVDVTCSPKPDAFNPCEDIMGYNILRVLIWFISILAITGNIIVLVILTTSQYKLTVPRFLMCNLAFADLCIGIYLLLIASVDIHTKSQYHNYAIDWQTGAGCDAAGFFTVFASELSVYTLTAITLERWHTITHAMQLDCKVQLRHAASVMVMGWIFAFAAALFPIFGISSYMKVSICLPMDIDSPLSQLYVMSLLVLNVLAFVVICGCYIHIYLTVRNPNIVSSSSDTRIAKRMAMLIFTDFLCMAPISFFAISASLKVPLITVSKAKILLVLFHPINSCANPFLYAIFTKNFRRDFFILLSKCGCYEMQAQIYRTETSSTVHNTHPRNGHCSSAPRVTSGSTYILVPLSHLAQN
Experiment: hFSHRago (CHO luc): agonistic activity at the human FSH receptor expressed in CHO cells, CRE-luciferase reporter
Conditions: CHO cells stably transfected with human FSH receptor and CRE/luciferase reporter; 4 hours of incubation
Numbers only, as −log10 of the molar value.

Examples from the recorded data:
compound	pEC50
COc1cc2c(cc1C(=O)Nc1nncs1)-c1c(-c3cccs3)cc(C(=O)N(C)C(C)(C)C)n1CC2	9.00
COc1cc2c(cc1NC(=O)CN(C)C)-c1c(-c3cccs3)cc(C(=O)N(C)C(C)(C)C)n1CC2	8.55
COc1cc2c(cc1OCC1CC1)-c1c(-c3cccs3)cc(C(=O)N3CCCN(C(C)=O)CC3)n1CC2	7.24
COc1cc2c(cc1OC(C)C)-c1c(-c3cccs3)cc(C(=O)N3CCCN(C(=O)C4(O)CCC4)CC3)n1CC2	8.85
COc1cc2ccn3c(C(=O)N(C)C(C)(C)C)cc(-c4cccs4)c3c2cc1OCCO	8.60

Provide pEC50 values for the following items, in order.
1. COc1cc2c(cc1OCCN(C)C)-c1c(-c3cccs3)cc(C(=O)N(C)C(C)(C)C)n1CC2
2. CNCC(=O)N1CCCN(C(=O)c2cc(-c3cccs3)c3n2CCc2cc(OC)c(OC(C)C)cc2-3)CC1
3. COc1cc2c(cc1NC(C)C)-c1c(-c3cccs3)cc(C(=O)N(C)C(C)(C)C)n1CC2
4. COc1cc2c(cc1OC(C)C)-c1c(-c3cccs3)cc(C(=O)N3CCCN(S(=O)(=O)c4ccc(C)cc4)CCC3)n1CC2

Found:
6.93
6.58
8.38
6.04

Provide pEC50 values for the following items, in order.
1. COc1cc2c(cc1OC)-c1c(-c3ccsc3)cc(C(=O)N(C)CC(=O)N(C)CC(C)C)n1CC2 [Example 119e]
2. COc1cc2c(cc1OC)-c1c(Br)cc(C(=O)O)n1CC2 [Example 108b]

Found:
1. 5.97
2. 7.00
